# Tested on: MALME-3M melanoma
# Method Summary: NCI tumour cell line growth inhibition, 48 h
Endpoint Name: TGI (µM)
Expressed in µM, but write only the number.

In: Identify the reported TGI for the following entry. Cc1nc2sccn2c1-c1csc(Nc2ccccc2Cl)n1
Out: 22.1

In: Identify the reported TGI for the following entry. CC(=O)OC1OC([C@@H]2c3cccc(O)c3C(=O)c3c(O)cc(C)cc32)C(O)C(O)C1O (some centres undefined)
Out: 0.0902

In: Identify the reported TGI for the following entry. C[C@@H](NC(=O)[C@@H]1C[C@]1(C)COC(=O)c1cc([N+](=O)[O-])cc([N+](=O)[O-])c1)c1cccc2ccccc12
Out: 51

In: Identify the reported TGI for the following entry. C=CC(=O)Nc1cc(Nc2ncc(C(=O)OC(C)C)c(-c3cn(C)c4ccccc34)n2)c(OC)cc1N(C)CCN(C)C
Out: 3.24

In: Identify the reported TGI for the following entry. Nc1c2c(nc3ccccc13)-c1ccccc1CC2
Out: 20.8

In: Identify the reported TGI for the following entry. COc1cc(/C=N\NC(=O)CN2CCN(c3cc4c(cc3F)c(=O)c(C(=O)N/N=C/c3cc(OC)c(OC)c(OC)c3)cn4C3CC3)CC2)cc(OC)c1OC
Out: 0.712

In: Identify the reported TGI for the following entry. CC(=O)[CH-]C(=O)c1ccccc1.CC(=O)[CH-]C(=O)c1ccccc1.CN(C)c1ccc([O-])cc1.CN(C)c1ccc([O-])cc1.Cl.[Ti+4]
Out: 26.4

In: Identify the reported TGI for the following entry. O=c1c2cc([N+](=O)[O-])cnc2sn1-c1ccc([N+](=O)[O-])cc1
Out: 53

In: Identify the reported TGI for the following entry. COc1cnc2c(c1)C(=O)c1c-2n(CCCN2CCOCC2)c(=O)c2cc(F)ccc12
Out: 3.42

The origin of these recorded values is PubChem BioAssay (NCI).
